Value source: ChEMBL document CHEMBL3988442

Each item that follows carries a reported Percent Effect.
Target: Arginase-2, mitochondrial (Homo sapiens)
Assay: in vitro enzyme assay to detect the production of urea directly proportional to the activity of Arginase II
Assay type: functional
Parameters: scale not given: in the data most compounds retested in dose-response had high values
Conditions: 33.3 µM
The figure you give is taken to be in %; do not add the unit.

Record excerpt, results attached:
>  <COMPOUND>
O=C(Cc1ccccn1)N1CCN(C(=O)c2cccc3[nH]ncc23)CC1

>  <TARGET_OR_SYSTEM>
Arginase-2, mitochondrial (Homo sapiens)

>  <MEASURED_METRIC>
Percent Effect

>  <UNITS_TEXT>
%

>  <VALUE_MEASURED>
2.8

$$$$
>  <COMPOUND>
NC(=O)c1cc(NC(=O)N2CCCCCC2)ccc1F

>  <TARGET_OR_SYSTEM>
Arginase-2, mitochondrial (Homo sapiens)

>  <MEASURED_METRIC>
Percent Effect

>  <UNITS_TEXT>
%

>  <VALUE_MEASURED>
30.4

$$$$
>  <COMPOUND>
CCc1ccc(OCC(O)CN2CCN(S(C)(=O)=O)CC2)cc1 (configuration not stated)

>  <TARGET_OR_SYSTEM>
Arginase-2, mitochondrial (Homo sapiens)

>  <MEASURED_METRIC>
Percent Effect

>  <UNITS_TEXT>
%

>  <VALUE_MEASURED>
-3.58

$$$$
>  <COMPOUND>
CNc1cncc(C2CCCN(S(C)(=O)=O)C2)n1 (configuration not stated)

>  <TARGET_OR_SYSTEM>
Arginase-2, mitochondrial (Homo sapiens)

>  <MEASURED_METRIC>
Percent Effect

>  <UNITS_TEXT>
%

>  <VALUE_MEASURED>
3.48

$$$$
>  <COMPOUND>
Cc1noc(C)c1CNC(=O)N1CCC(CO)CC1

>  <TARGET_OR_SYSTEM>
Arginase-2, mitochondrial (Homo sapiens)

>  <MEASURED_METRIC>
Percent Effect

>  <UNITS_TEXT>
%

>  <VALUE_MEASURED>
-1.2

$$$$

I looked up O=C(c1cnccn1)N1CCN(Cc2csc(-c3ccccc3)n2)CC1 and its Percent Effect for Arginase-2, mitochondrial (Homo sapiens) was 0.185

Arginase-2, mitochondrial (Homo sapiens) data for Cn1nnc2c1CCN(CC1CC1)C2COCc1ccccc1 (configuration not stated) ; its Percent Effect: 5.36

Entry COC[C@@H]1CC[C@H]2[C@H](CCN2C(=O)c2ccncc2F)O1 , Arginase-2, mitochondrial (Homo sapiens) data, Percent Effect value: 2.73

Response field Percent Effect (Arginase-2, mitochondrial (Homo sapiens)) for item CCOCCOC(C)C(=O)NCc1cn2cc(Br)ccc2n1 (configuration not stated) : 1.18

Field Percent Effect (Arginase-2, mitochondrial (Homo sapiens)), entry CN(Cc1cnn(C)c1)C(=O)NC1CCS(=O)(=O)C1 (configuration not stated) : -0.442
